Here's a batch of compounds along with measured AC50 for Sodium-dependent dopamine transporter (Homo sapiens, UniProt Q01959).
Recorded Metric: AC50

| Compound | Reported Result |
| --- | --- |
| CO[C@H]1/C=C/O[C@@]2(C)Oc3c(C)c(O)c4c(O)c(c(/C=N/N5CCN(C)CC5)c(O)c4c3C2=O)NC(=O)/C(C)=C\C=C\[C@H](C)[C@H](O)[C@@H](C)[C@@H](O)[C@@H](C)[C@H](OC(C)=O)[C@@H]1C | 20 µM |
| CC(C(=O)O)c1ccc(-c2ccccc2)c(F)c1 (centres undefined) | > 10 µM |
| CC(S)C(=O)NCC(=O)O (centres undefined) | > 30 µM |
| NC1CCN(c2nc3c(cc2F)c(=O)c(C(=O)O)cn3-c2ccc(F)cc2F)C1 (centres undefined) | > 30 µM |
| CC(N)C(O)c1ccccc1 (centres undefined) | > 30 µM |
| CC1OC2(CS1)CN1CCC2CC1 (centres undefined) | > 10 µM |
| CCC(C)C(CC)C(N)=O (centres undefined) [VALNOCTAMIDE] | > 30 µM |
| CCOC(=O)C1=C(C)NC(C)=C(C(=O)OC)C1c1cccc([N+](=O)[O-])c1 (centres undefined) | 32.2 µM |
| COc1ccccc1OCCNCC(O)COc1cccc2[nH]c3ccccc3c12 (centres undefined) | 4.53 µM |
| CCN(CC)CCNC(=O)c1cc(S(C)(=O)=O)ccc1OC [TIAPRIDE] | > 30 µM |
| COc1cc(N)c(Cl)cc1C(=O)NC1CCN(Cc2ccccc2)CC1 [CLEBOPRIDE] | 22 µM |
| COc1cc2c(cc1OC)C(CCc1ccc(Cl)cc1)N(C)CC2 (centres undefined) | 28.7 µM |
| C=CCNc1nc(NCC=C)nc(N2CCN(C(c3ccc(F)cc3)c3ccc(F)cc3)CC2)n1 | > 30 µM |
| CCC[C@H](NC(=O)[C@@H]1[C@H]2CCC[C@H]2CN1C(=O)[C@@H](NC(=O)[C@@H](NC(=O)c1cnccn1)C1CCCCC1)C(C)(C)C)C(=O)C(=O)NC1CC1 | > 10 µM |
| N[C@@H](CC(=O)N1CCn2c(nnc2C(F)(F)F)C1)Cc1cc(F)c(F)cc1F | > 30 µM |
| Cc1ncc2n1-c1ccc(Cl)cc1C(c1ccccc1F)=NC2 | > 30 µM |
| O=C1CN=C(c2ccccn2)c2cc(Br)ccc2N1 | > 10 µM |
| CCCC(CCC)C(=O)O | 4.97 µM |
| CCN(CC)C(=O)Nc1ccc(OCC(O)CNC(C)(C)C)c(C(C)=O)c1 (centres undefined) | > 30 µM |
| C=C1/C(=C\C=C2/CCC[C@]3(C)[C@@H]([C@H](C)/C=C/[C@@H](O)C4CC4)CC[C@@H]23)C[C@@H](O)C[C@@H]1O | > 30 µM |
| CC(C)(C)NCC(O)c1cc(O)cc(O)c1 (centres undefined) | > 30 µM |
| CC12CC3CC(C)(C1)CC(N)(C3)C2 [MEMANTINE] | > 30 µM |
| CC1(C)S[C@@H]2[C@H](NC(=O)[C@H](N)c3ccccc3)C(=O)N2[C@H]1C(=O)OCOC(=O)[C@@H]1N2C(=O)C[C@H]2S(=O)(=O)C1(C)C | > 30 µM |
| COc1ccc2nc3cc(Cl)ccc3c(Nc3cc(CN4CCCC4)c(O)c(CN4CCCC4)c3)c2n1 | 11 µM |
| CC(=O)O[C@]1(C(C)=O)CC[C@H]2[C@@H]3C=C(C)C4=CC(=O)CC[C@@H]4[C@H]3CC[C@@]21C [NOMEGESTROL ACETATE] | > 30 µM |
| C[C@]12CCC(=O)C(O)=C1CC[C@@H]1[C@@H]2CC[C@]2(C)C(=O)CC[C@@H]12 | > 30 µM |
| Oc1ccc2c(c1)CC[C@H](c1ccccc1)[C@@H]2c1ccc(OCCN2CCCC2)cc1 | 0.117 µM |
| C#C[C@]1(OC(C)=O)CC[C@H]2[C@@H]3CCC4=C/C(=N/O)CC[C@@H]4[C@H]3CC[C@@]21CC [NORGESTIMATE] | 10 µM |
| O=C(O)CCNC(=O)c1ccccc1 | > 30 µM |
| Cc1cccc(N2CC(CO)OC2=O)c1 (centres undefined) | > 30 µM |
| O=C1CN(/N=C/c2ccc(-c3ccc([N+](=O)[O-])cc3)o2)C(O)=N1 | > 10 µM |
| CC(C)[C@H](N)C(=O)OCC(CO)OCn1cnc2c(=O)nc(N)[nH]c21 (some centres undefined) | > 30 µM |
| CN1C(C(=O)Nc2ccccn2)=C(O)c2ccccc2S1(=O)=O | > 10 µM |
| C[C@H](CCC(=O)O)[C@H]1CC[C@H]2[C@@H]3[C@@H](O)C[C@@H]4C[C@H](O)CC[C@]4(C)[C@H]3CC[C@]12C | > 30 µM |

---

// reported AC50 for each item listed
# Assay System: Kappa-type opioid receptor (Homo sapiens); further: assay procedure not described here
# Sequence (P41145 whole entry): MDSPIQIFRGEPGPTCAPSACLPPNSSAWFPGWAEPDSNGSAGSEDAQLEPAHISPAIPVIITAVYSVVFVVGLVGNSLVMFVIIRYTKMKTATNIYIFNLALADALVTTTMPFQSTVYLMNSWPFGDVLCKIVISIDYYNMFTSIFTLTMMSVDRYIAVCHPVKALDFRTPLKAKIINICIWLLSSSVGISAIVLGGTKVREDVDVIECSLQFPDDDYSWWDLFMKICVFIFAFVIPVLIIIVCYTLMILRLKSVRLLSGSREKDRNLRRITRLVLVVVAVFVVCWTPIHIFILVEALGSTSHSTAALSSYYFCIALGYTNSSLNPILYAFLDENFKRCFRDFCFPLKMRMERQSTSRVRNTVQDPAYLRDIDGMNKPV
Recorded Metric: AC50

| Compound | Assay System | Recorded Metric | Reported Result |
| --- | --- | --- | --- |
| C/N=C(\NC)NCc1ccccc1 | Kappa-type opioid receptor (Homo sapiens) | AC50 | > 30 µM |
| O=C(O)c1ccccc1Nc1cc(Cl)ccc1C(=O)O | Kappa-type opioid receptor (Homo sapiens) | AC50 | > 30 µM |
| CC(=O)SC[C@@H](C)C(=O)N1CCC[C@H]1C(=O)N[C@@H](Cc1ccccc1)C(=O)O | Kappa-type opioid receptor (Homo sapiens) | AC50 | 21 µM |
| CCC[C@H](NC(=O)[C@@H]1[C@H]2CCC[C@H]2CN1C(=O)[C@@H](NC(=O)[C@@H](NC(=O)c1cnccn1)C1CCCCC1)C(C)(C)C)C(=O)C(=O)NC1CC1 | Kappa-type opioid receptor (Homo sapiens) | AC50 | > 10 µM |
| CCCN(CCC)C(=O)Cc1c(-c2ccc(Cl)cc2)nc2ccc(Cl)cn12 | Kappa-type opioid receptor (Homo sapiens) | AC50 | 13 µM |
| C[C@@H](NCCCc1cccc(C(F)(F)F)c1)c1cccc2ccccc12 | Kappa-type opioid receptor (Homo sapiens) | AC50 | > 30 µM |
| Clc1ccc(C(Cn2ccnc2)OCc2ccsc2Cl)c(Cl)c1 (stereo not drawn) | Kappa-type opioid receptor (Homo sapiens) | AC50 | 1.8 µM |
| C=CC[C@@H]1/C=C(\C)C[C@H](C)C[C@H](OC)[C@H]2O[C@@](O)(C(=O)C(=O)N3CCCC[C@H]3C(=O)O[C@H](/C(C)=C/[C@@H]3CC[C@@H](O)[C@H](OC)C3)[C@H](C)[C@@H](O)CC1=O)[C@H](C)C[C@@H]2OC [TACROLIMUS ANHYDROUS] | Kappa-type opioid receptor (Homo sapiens) | AC50 | > 10 µM |
| O=C1CCc2cc(OCCCCc3nnnn3C3CCCCC3)ccc2N1 | Kappa-type opioid receptor (Homo sapiens) | AC50 | 3.06 µM |
| CCOC(=O)O[C@]1(C(=O)OCCl)CC[C@H]2[C@@H]3CCC4=CC(=O)C=C[C@]4(C)[C@H]3[C@@H](O)C[C@@]21C [LOTEPREDNOL ETABONATE] | Kappa-type opioid receptor (Homo sapiens) | AC50 | > 30 µM |
| CSCC[C@H](NC(=O)[C@H](Cc1c[nH]c2ccccc12)NC(=O)CCNC(=O)OC(C)(C)C)C(=O)N[C@@H](CC(=O)O)C(=O)N[C@@H](Cc1ccccc1)C(N)=O | Kappa-type opioid receptor (Homo sapiens) | AC50 | > 10 µM |
| CC(=O)O[C@H](CC(=O)[O-])C[N+](C)(C)C | Kappa-type opioid receptor (Homo sapiens) | AC50 | > 30 µM |
| CN(C)CCCNc1c2ccccc2nc2cccc([N+](=O)[O-])c12 | Kappa-type opioid receptor (Homo sapiens) | AC50 | > 30 µM |
| CC(=O)OCC(=O)[C@@]1(O)[C@H](C)C[C@H]2[C@@H]3CCC4=CC(=O)C=C[C@]4(C)[C@@]3(F)[C@@H](O)C[C@@]21C [DEXAMETHASONE ACETATE] | Kappa-type opioid receptor (Homo sapiens) | AC50 | > 10 µM |
| CC(C(=O)O)c1ccc2c(c1)[nH]c1ccc(Cl)cc12 (stereo not drawn) | Kappa-type opioid receptor (Homo sapiens) | AC50 | > 10 µM |
| CCCC(CCC)C(=O)O | Kappa-type opioid receptor (Homo sapiens) | AC50 | > 10 µM |
| Nc1ccc(S(=O)(=O)Nc2nccs2)cc1 | Kappa-type opioid receptor (Homo sapiens) | AC50 | > 10 µM |
| CCN(CC)C(=O)Nc1ccc(OCC(O)CNC(C)(C)C)c(C(C)=O)c1 (stereo not drawn) | Kappa-type opioid receptor (Homo sapiens) | AC50 | > 30 µM |
| CCCN[C@H]1CCc2nc(N)sc2C1 [PRAMIPEXOLE] | Kappa-type opioid receptor (Homo sapiens) | AC50 | > 10 µM |
| Cc1noc(NS(=O)(=O)c2ccc(N)cc2)c1C | Kappa-type opioid receptor (Homo sapiens) | AC50 | > 10 µM |
| CCCC(CCC)C(N)=O [VALPROMIDE] | Kappa-type opioid receptor (Homo sapiens) | AC50 | > 10 µM |
| CCC1(c2ccccc2)CCC(=O)NC1=O (stereo not drawn) [GLUTETHIMIDE] | Kappa-type opioid receptor (Homo sapiens) | AC50 | > 10 µM |
| Cn1c(=O)cc(N2CCC[C@@H](N)C2)n(Cc2ccccc2C#N)c1=O | Kappa-type opioid receptor (Homo sapiens) | AC50 | 8.32 µM |
| COc1cc(N)c(Cl)cc1C(=O)NC1CCN(Cc2ccccc2)CC1 [CLEBOPRIDE] | Kappa-type opioid receptor (Homo sapiens) | AC50 | 22 µM |
| CC(N)C(O)c1ccccc1 (stereo not drawn) | Kappa-type opioid receptor (Homo sapiens) | AC50 | > 10 µM |
| CC(=O)O[C@]1(C(C)=O)CC[C@H]2[C@@H]3C=C(C)C4=CC(=O)CC[C@@H]4[C@H]3CC[C@@]21C [NOMEGESTROL ACETATE] | Kappa-type opioid receptor (Homo sapiens) | AC50 | > 30 µM |
| COc1ccc(-c2noc(CC(=O)O)c2-c2ccc(OC)cc2)cc1 | Kappa-type opioid receptor (Homo sapiens) | AC50 | > 30 µM |
| C=C1/C(=C\C=C2/CCC[C@]3(C)[C@@H]([C@H](C)/C=C/[C@@H](O)C4CC4)CC[C@@H]23)C[C@@H](O)C[C@@H]1O | Kappa-type opioid receptor (Homo sapiens) | AC50 | > 30 µM |
| CC(=O)N[C@@H](CS)C(=O)O | Kappa-type opioid receptor (Homo sapiens) | AC50 | > 30 µM |
| Cc1cc(C(C)(C)C)cc(C)c1CC1=NCCN1 | Kappa-type opioid receptor (Homo sapiens) | AC50 | 20 µM |
| CCC(=O)O[C@]1(C(=O)SCF)[C@H](C)C[C@H]2[C@@H]3C[C@H](F)C4=CC(=O)C=C[C@]4(C)[C@@]3(F)[C@@H](O)C[C@@]21C [FLUTICASONE PROPIONATE] | Kappa-type opioid receptor (Homo sapiens) | AC50 | > 30 µM |
| C#CCOc1ccc(N)cc1C(=O)NCCCC [PARSALMIDE] | Kappa-type opioid receptor (Homo sapiens) | AC50 | > 30 µM |
| COc1ccccc1Oc1c(NS(=O)(=O)c2ccc(C(C)(C)C)cc2)nc(-c2ncccn2)nc1OCCO | Kappa-type opioid receptor (Homo sapiens) | AC50 | > 10 µM |
